# test.target: human TRPV1 receptor (hTRPV1) (Homo sapiens (Human), UniProt Q8NER1)
# Sequence (Q8NER1 whole entry): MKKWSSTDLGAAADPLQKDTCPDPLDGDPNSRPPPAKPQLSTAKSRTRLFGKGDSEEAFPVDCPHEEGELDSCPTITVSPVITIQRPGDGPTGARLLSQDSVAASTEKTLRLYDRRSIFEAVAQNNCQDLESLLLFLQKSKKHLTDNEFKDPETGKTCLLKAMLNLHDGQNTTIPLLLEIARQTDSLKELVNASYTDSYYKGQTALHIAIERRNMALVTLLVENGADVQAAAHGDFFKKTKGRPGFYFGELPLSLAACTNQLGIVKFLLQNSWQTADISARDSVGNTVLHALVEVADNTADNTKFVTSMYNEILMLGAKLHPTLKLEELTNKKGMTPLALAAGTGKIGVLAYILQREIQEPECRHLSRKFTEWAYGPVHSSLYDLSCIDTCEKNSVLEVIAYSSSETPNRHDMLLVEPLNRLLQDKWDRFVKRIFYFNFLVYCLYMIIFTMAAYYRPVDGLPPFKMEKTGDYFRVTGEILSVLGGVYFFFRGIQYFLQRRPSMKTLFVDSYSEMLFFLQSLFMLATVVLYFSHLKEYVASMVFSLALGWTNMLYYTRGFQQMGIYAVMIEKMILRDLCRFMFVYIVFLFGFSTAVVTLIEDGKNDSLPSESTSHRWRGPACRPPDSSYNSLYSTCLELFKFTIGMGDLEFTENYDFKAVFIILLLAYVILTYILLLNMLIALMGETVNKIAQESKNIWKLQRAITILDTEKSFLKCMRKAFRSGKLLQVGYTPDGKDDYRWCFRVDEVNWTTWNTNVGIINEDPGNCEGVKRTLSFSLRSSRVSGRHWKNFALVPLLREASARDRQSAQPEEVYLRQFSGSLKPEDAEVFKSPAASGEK
# assay.name: Capsaicin activation assay (FLIPR intracellular Ca2+)
# Type: cell-based
# test.context: Table 1; inhibition of capsaicin-induced intracellular Ca2+ increase, HEK293 cells expressing human TRPV1; read-out: hTRPV1 cap IC50
We begin with a simple list: items and their reported pIC50.
Schema: pIC50 number; meaning minus log10 of the concentration expressed in molar units.

Examples with their reported pIC50 follow.
query: Given the entry Cc1cc2c(NC(=O)N[C@H]3CC[C@H](c4ccccc4)C3)c(F)ccc2cn1 , report its measured pIC50.
result: 7.89

query: Fill in: pIC50 of O=C(Nc1cccc2[nH]ncc12)N[C@@H]1CC[C@H](c2ccc(C(F)(F)F)cc2)C1 is ___
result: 7.77

With those in mind, consider the next compound.
query: I have this compound here, O=C(Nc1cccc2c1C[C@@H](O)C2)N[C@H]1CC[C@@H](c2cccc(F)c2)C1 , and I need its recorded pIC50.
result: 6.61

----------
# test.target: human TRPV1 receptor (hTRPV1) (Homo sapiens (Human), UniProt Q8NER1)
# assay.name: Acid activation assay (pH 5.0, FLIPR intracellular Ca2+)
# Format: cell-based
# test.context: Table 2; 37.5 μM antagonist, percentage of the maximal pH 5.0-induced response remaining; read-out: hTRPV1 H+ (max % remain)
# Description: Dulbecco's modified Eagle's medium (DMEM) with 4.5 mg/mL D-glucose, fetal bovine serum, L-glutamine, and 2-morpholinoethanesulfonic acid (MES) were purchased from Sigma-Aldrich Co. (St. Louis, Mo.). […] The functional activity of compounds at the TRPV1 receptor was determined by measurement of intracellular Ca^2+ levels ([Ca^2+]i) using the Fluorescence Imaging Plate Reader (FLIPR)^TETRA®. […]
Consider the reported remaining activity at 37.5 µM of an entry and match it to a band in low-valued (below 20%), mid-valued (20% to below 50%), high-valued (50% or more)

query: The entry to classify is Cn1c(=O)ccc2c(NC(=O)N[C@@H]3CC[C@@H](c4cccc(F)c4)C3)cccc21 [Example 78] ; which class holds it?
result: high-valued

query: Textbook exercise: identify the category of the compound given here, O=C(Nc1cccc2[nH]ncc12)N[C@@H]1CC[C@H](c2ccccc2)C1 [Example 7] , according to its measured value.
result: mid-valued

query: Band of O=C(Nc1cccc2[nH]ncc12)N[C@H]1CC[C@H](c2ccccc2)C1 [Example 14] ?
result: mid-valued

query: Each compound maps to one class by remaining activity at 37.5 µM. Which class for Cc1cccnc1N1CC=C(C(=O)Nc2ccc(S(=O)(=O)C(F)(F)F)cc2)CC1 [L, reference compound] ?
result: low-valued

Further cases:
query: Band assignment needed for Cc1cc2c(NC(=O)N[C@@H]3CC[C@@H](c4ccccc4)C3)c(F)ccc2cn1 [Example 20] please.
result: mid-valued

query: Field: class (remaining activity at 37.5 µM) — entry: CC(C)(C)c1ccc2c(c1)CC[C@H]2NC(=O)Nc1cccc2[nH]ncc12 [J, reference compound]
result: low-valued

query: Which class is correct for the following compound? Cc1cc2c(NC(=O)N[C@@H]3CC[C@H](c4ccccc4)C3)c(F)ccc2cn1 [Example 6]
result: high-valued

----------
# test.target: human TRPV1 receptor (hTRPV1) (Homo sapiens (Human), UniProt Q8NER1)
# assay.name: Acid activation assay (pH 5.0, FLIPR intracellular Ca2+)
# Type: cell-based
# test.context: Table 1; 37.5 μM antagonist, percentage of the maximal pH 5.0-induced response remaining; read-out: hTRPV1 H+ (max % remain)
The label 1 is reserved for remaining activity at 37.5 µM strictly under 40%; -1 covers values equal to or above it.

Before answering, review these 7 worked examples.
query: Criterion: remaining activity at 37.5 µM strictly below 40%. Is it met by O=C(Nc1cccc2c1C[C@@H](O)C2)N[C@H]1CC[C@@H](c2ccccc2F)C1 ?
result: 1

query: Does the reported remaining activity at 37.5 µM of the following compound sit strictly below 40%? Cn1ncc2c(NC(=O)N[C@@H]3CC[C@@H](c4ccccc4F)C3)cccc21
result: 1

query: Consider CN1CCOc2ccc(NC(=O)N[C@@H]3CC[C@H](c4ccccc4)C3)cc21 . Does its remaining activity at 37.5 µM lie strictly below 40%?
result: -1

query: Threshold test, remaining activity at 37.5 µM < 40%: O=C(Nc1cccc2[nH]ncc12)N[C@@H]1CC[C@H](c2ccccc2F)C1
result: -1

query: Quick check: remaining activity at 37.5 µM of C[C@H]1Oc2c(NC(=O)N[C@@H]3CC[C@@H](c4ccccc4)C3)cccc2NC1=O under 40%?
result: 1

query: Quick check: remaining activity at 37.5 µM of Cc1cc2c(NC(=O)N[C@H]3CC[C@H](c4cccc(F)c4)C3)c(F)ccc2cn1 under 40%?
result: -1

query: Does this compound meet the criterion remaining activity at 37.5 µM < 40%? O=C(Nc1cccc2[nH]ncc12)N[C@H]1C[C@@H](c2ccccc2)[C@H](O)[C@@H]1O
result: -1

New cases:
query: Does the reported remaining activity at 37.5 µM of Cn1ncc2c(NC(=O)N[C@H]3CC[C@@H](c4ccccc4)C3)cccc21 stay below 40%?
result: -1

----------
# test.target: human TRPV1 receptor (hTRPV1) (Homo sapiens (Human), UniProt Q8NER1)
# assay.name: Capsaicin activation assay (FLIPR intracellular Ca2+)
# Format: cell-based
# test.context: Table 1; inhibition of capsaicin-induced intracellular Ca2+ increase, HEK293 cells expressing human TRPV1; read-out: hTRPV1 cap IC50
Each record is given satisfied if its reported IC50 is strictly below 90 nM. Records at or above 90 nM are given not satisfied.

These solved cases illustrate the format of a correct answer.
query: A record lists O=C(Nc1cccc2[nH]ncc12)N[C@@H]1CC[C@@H](c2ccccc2)C1 [Example 21] . Is its IC50 below 90 nM?
result: satisfied

query: Please state whether IC50 is below 90 nM for O=C(Nc1cccc2[nH]ncc12)N[C@H]1CCC[C@@H](c2ccc(C(F)(F)F)cc2)C1 [Example 33]
result: not satisfied

query: Please state whether IC50 is below 90 nM for CN1C(=O)CCc2c(NC(=O)N[C@H]3CC[C@H](c4ccccc4)C3)cccc21 [Example 96]
result: satisfied

query: Given the entry O=C(Nc1cccc2c1C[C@H](O)C2)N[C@@H]1CC[C@@H](c2ccccc2F)C1 [Example 92] , would its reported IC50 be below 90 nM?
result: satisfied

query: Problem: For the compound O=C(Nc1cccc2c1C[C@H](O)C2)N[C@@H]1CC[C@H](c2ccccc2)C1 [Example 1] , is IC50 under 90 nM?
result: not satisfied

query: Regarding O=C(Nc1cccc2[nH]ncc12)N[C@H]1CC[C@H](c2ccccc2)C1 [Example 14] , kindly confirm whether its IC50 is beneath 90 nM.
result: satisfied

---
query: Given the entry O=C(Nc1ccc2c(c1)NC(=O)N(CCO)C2)N[C@@H]1CC[C@@H](c2cccc(F)c2)C1 [Example 115] , would its reported IC50 be below 90 nM?
result: not satisfied

----------
# System: Sprague-Dawley rats
# assay.name: Rat tail immersion assay (noxious thermosensation)
# Assay type: in vivo
# test.context: 1 h; rat, 100 μmol/kg oral, one hour post dosing, 55° C. water bath, relative to vehicle; read-out: % Increase in tail withdrawal latency
readout.label: change in vivo at 100 µmol/kg

Answered cases to consult:
query: So what's the measured change in vivo at 100 µmol/kg for this one? CC(=O)Nc1nc2c(Oc3cc(-c4ccc(C(F)(F)F)cc4)ncn3)cccc2s1 [H, reference compound]
result: > 25%

query: Requested field: change in vivo at 100 µmol/kg. Item: CC(C)(C)c1ccc(Nc2ncnc3cc(-c4ncccc4C(F)(F)F)ccc23)cc1 [I, reference compound]
result: > 25%

query: May I ask what change in vivo at 100 µmol/kg has been recorded for CN1C(=O)CCc2c(NC(=O)N[C@H]3CC[C@H](c4ccccc4)C3)cccc21 [Example 96] ?
result: 10 to 25%

query: Please give the measured change in vivo at 100 µmol/kg for this compound: O=C(Nc1cccc2[nH]ncc12)N[C@@H]1CC[C@@H](c2ccccc2)C1 [Example 21]
result: 10 to 25%

Next:
query: Which change in vivo at 100 µmol/kg is listed for O=C(Nc1cccc2[nH]ncc12)N[C@@H]1CC[C@@H](c2ccccc2F)C1 [Example 66] ?
result: > 25%

----------
# test.target: human TRPV1 receptor (hTRPV1) (Homo sapiens (Human))
# assay.name: Capsaicin activation assay (FLIPR intracellular Ca2+)
# Format: cell-based
# test.context: Table 1; inhibition of capsaicin-induced intracellular Ca2+ increase, HEK293 cells expressing human TRPV1; read-out: hTRPV1 cap IC50
# Description: Dulbecco's modified Eagle medium (D-MEM) (with 4.5 mg/mL glucose) and fetal bovine serum were obtained from Hyclone Laboratories, Inc. (Logan, Utah). […] The functional activity of compounds at the TRPV1 receptor was determined by measurement of intracellular Ca^2+ levels ([Ca^2+]i) using the Fluorescence Imaging Plate Reader (FLIPR)^TETRA®. […] Fluorescence readings were made at 1 to 5 second intervals over the course of the experimental run. […]
Listing: pIC50 of selected molecules
Quick note: pIC50 means taking -log10 of the concentration in moles per liter.

Recorded pIC50, per entry:
query: // lookup pIC50 | system=human TRPV1 receptor (hTRPV1) (Homo sapiens (Human)) | key= Cn1c(=O)ccc2c(NC(=O)N[C@H]3CC[C@@H](c4ccccc4)C3)cccc21
result: 7.11

query: Hello, I am looking for reported pIC50 with human TRPV1 receptor (hTRPV1) (Homo sapiens (Human)) for CN1C(=O)CCc2c(NC(=O)N[C@@H]3CC[C@@H](c4cccc(F)c4)C3)cccc21 . Could you help?
result: 7.16

query: Provide the documented pIC50 with human TRPV1 receptor (hTRPV1) (Homo sapiens (Human)) as the system for O=C(Nc1cccc2c1C[C@@H](O)CC2)N[C@H]1CC[C@@H](c2ccccc2)C1 [Compound B, reference compound]
result: 8.22

# next molecule below
query: Lab request: please report pIC50 under test system human TRPV1 receptor (hTRPV1) (Homo sapiens (Human)) for Cc1cc2c(NC(=O)N[C@@H]3CC[C@H](c4cccc(F)c4)C3)c(F)ccc2cn1
result: 8.70

The reported numbers originate from patent US8802711B2.
